B1: Calcium-binding protein 2, residues 155 to 219; numbered along this chain, Q9NPB3 (parent)
chain: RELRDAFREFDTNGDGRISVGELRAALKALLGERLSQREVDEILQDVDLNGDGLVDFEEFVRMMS

# Variants of: B1
# test.name: abundance fitness (aPCA) (normalised: wild type 0, dead -1); higher = more abundant; growth selection in yeast, the domain comes from the species named
# condition.label: Homo sapiens
Consider the following variants and their measured abundance fitness readings.
endpoint: abundance fitness

[[record]]
mutation_spec = "A25T"
endpoint = "abundance fitness"
recorded_measurement = -0.035

[[record]]
mutation_spec = "L35K"
endpoint = "abundance fitness"
recorded_measurement = 0.244

[[record]]
mutation_spec = "E58R"
endpoint = "abundance fitness"
recorded_measurement = -0.117

[[record]]
mutation_spec = "L23Y"
endpoint = "abundance fitness"
recorded_measurement = -0.249

[[record]]
mutation_spec = "D41G"
endpoint = "abundance fitness"
recorded_measurement = -0.162

[[record]]
mutation_spec = "N50L"
endpoint = "abundance fitness"
recorded_measurement = -0.232

[[record]]
mutation_spec = "E59K"
endpoint = "abundance fitness"
recorded_measurement = -0.092

[[record]]
mutation_spec = "A29T"
endpoint = "abundance fitness"
recorded_measurement = -0.023

[[record]]
mutation_spec = "R8C"
endpoint = "abundance fitness"
recorded_measurement = -0.141

[[record]]
mutation_spec = "D52R"
endpoint = "abundance fitness"
recorded_measurement = -0.149

[[record]]
mutation_spec = "G32D"
endpoint = "abundance fitness"
recorded_measurement = -0.29

[[record]]
mutation_spec = "G21H"
endpoint = "abundance fitness"
recorded_measurement = -0.328

[[record]]
mutation_spec = "K28Y"
endpoint = "abundance fitness"
recorded_measurement = -0.216

[[record]]
mutation_spec = "R34P"
endpoint = "abundance fitness"
recorded_measurement = 0.01

[[record]]
mutation_spec = "G16P"
endpoint = "abundance fitness"
recorded_measurement = -1.19

[[record]]
mutation_spec = "V61Q"
endpoint = "abundance fitness"
recorded_measurement = -0.051

[[record]]
mutation_spec = "L54V"
endpoint = "abundance fitness"
recorded_measurement = -0.241

[[record]]
mutation_spec = "F60C"
endpoint = "abundance fitness"
recorded_measurement = -0.176

[[record]]
mutation_spec = "N50Q"
endpoint = "abundance fitness"
recorded_measurement = -0.014

[[record]]
mutation_spec = "F10C"
endpoint = "abundance fitness"
recorded_measurement = -0.143

[[record]]
mutation_spec = "R4K"
endpoint = "abundance fitness"
recorded_measurement = 0.064

[[record]]
mutation_spec = "R34N"
endpoint = "abundance fitness"
recorded_measurement = 0.043

[[record]]
mutation_spec = "F60A"
endpoint = "abundance fitness"
recorded_measurement = -0.471

[[record]]
mutation_spec = "G51W"
endpoint = "abundance fitness"
recorded_measurement = -0.301

[[record]]
mutation_spec = "L30D"
endpoint = "abundance fitness"
recorded_measurement = -0.101

[[record]]
mutation_spec = "L3E"
endpoint = "abundance fitness"
recorded_measurement = -0.274

[[record]]
mutation_spec = "R4V"
endpoint = "abundance fitness"
recorded_measurement = -0.107

[[record]]
mutation_spec = "A26W"
endpoint = "abundance fitness"
recorded_measurement = -0.454

[[record]]
mutation_spec = "V47F"
endpoint = "abundance fitness"
recorded_measurement = -0.15

[[record]]
mutation_spec = "L3T"
endpoint = "abundance fitness"
recorded_measurement = -0.281

[[record]]
mutation_spec = "E59C"
endpoint = "abundance fitness"
recorded_measurement = 0.033

[[record]]
mutation_spec = "G14R"
endpoint = "abundance fitness"
recorded_measurement = -0.018

[[record]]
mutation_spec = "E58Y"
endpoint = "abundance fitness"
recorded_measurement = -0.43

[[record]]
mutation_spec = "R8K"
endpoint = "abundance fitness"
recorded_measurement = -0.068

[[record]]
mutation_spec = "L31A"
endpoint = "abundance fitness"
recorded_measurement = 0.127

[[record]]
mutation_spec = "T12H"
endpoint = "abundance fitness"
recorded_measurement = 0.039

[[record]]
mutation_spec = "F10Q"
endpoint = "abundance fitness"
recorded_measurement = 0.156

[[record]]
mutation_spec = "M64D"
endpoint = "abundance fitness"
recorded_measurement = -0.255

[[record]]
mutation_spec = "D52Q"
endpoint = "abundance fitness"
recorded_measurement = -0.121

[[record]]
mutation_spec = "S36Q"
endpoint = "abundance fitness"
recorded_measurement = 0.047

[[record]]
mutation_spec = "S36V"
endpoint = "abundance fitness"
recorded_measurement = 0.07

[[record]]
mutation_spec = "E42V"
endpoint = "abundance fitness"
recorded_measurement = -0.108

[[record]]
mutation_spec = "V40Y"
endpoint = "abundance fitness"
recorded_measurement = -0.117

[[record]]
mutation_spec = "R8I"
endpoint = "abundance fitness"
recorded_measurement = -0.156

[[record]]
mutation_spec = "L30M"
endpoint = "abundance fitness"
recorded_measurement = -0.595

[[record]]
mutation_spec = "R4L"
endpoint = "abundance fitness"
recorded_measurement = -0.526

